Provide the recorded inhibition for the entries that follow.
# measured target: 1-phosphatidylinositol 4,5-bisphosphate phosphodiesterase beta-3 (Homo sapiens) (UniProt Q01970)
# Sequence (Q01970 whole entry, looked up): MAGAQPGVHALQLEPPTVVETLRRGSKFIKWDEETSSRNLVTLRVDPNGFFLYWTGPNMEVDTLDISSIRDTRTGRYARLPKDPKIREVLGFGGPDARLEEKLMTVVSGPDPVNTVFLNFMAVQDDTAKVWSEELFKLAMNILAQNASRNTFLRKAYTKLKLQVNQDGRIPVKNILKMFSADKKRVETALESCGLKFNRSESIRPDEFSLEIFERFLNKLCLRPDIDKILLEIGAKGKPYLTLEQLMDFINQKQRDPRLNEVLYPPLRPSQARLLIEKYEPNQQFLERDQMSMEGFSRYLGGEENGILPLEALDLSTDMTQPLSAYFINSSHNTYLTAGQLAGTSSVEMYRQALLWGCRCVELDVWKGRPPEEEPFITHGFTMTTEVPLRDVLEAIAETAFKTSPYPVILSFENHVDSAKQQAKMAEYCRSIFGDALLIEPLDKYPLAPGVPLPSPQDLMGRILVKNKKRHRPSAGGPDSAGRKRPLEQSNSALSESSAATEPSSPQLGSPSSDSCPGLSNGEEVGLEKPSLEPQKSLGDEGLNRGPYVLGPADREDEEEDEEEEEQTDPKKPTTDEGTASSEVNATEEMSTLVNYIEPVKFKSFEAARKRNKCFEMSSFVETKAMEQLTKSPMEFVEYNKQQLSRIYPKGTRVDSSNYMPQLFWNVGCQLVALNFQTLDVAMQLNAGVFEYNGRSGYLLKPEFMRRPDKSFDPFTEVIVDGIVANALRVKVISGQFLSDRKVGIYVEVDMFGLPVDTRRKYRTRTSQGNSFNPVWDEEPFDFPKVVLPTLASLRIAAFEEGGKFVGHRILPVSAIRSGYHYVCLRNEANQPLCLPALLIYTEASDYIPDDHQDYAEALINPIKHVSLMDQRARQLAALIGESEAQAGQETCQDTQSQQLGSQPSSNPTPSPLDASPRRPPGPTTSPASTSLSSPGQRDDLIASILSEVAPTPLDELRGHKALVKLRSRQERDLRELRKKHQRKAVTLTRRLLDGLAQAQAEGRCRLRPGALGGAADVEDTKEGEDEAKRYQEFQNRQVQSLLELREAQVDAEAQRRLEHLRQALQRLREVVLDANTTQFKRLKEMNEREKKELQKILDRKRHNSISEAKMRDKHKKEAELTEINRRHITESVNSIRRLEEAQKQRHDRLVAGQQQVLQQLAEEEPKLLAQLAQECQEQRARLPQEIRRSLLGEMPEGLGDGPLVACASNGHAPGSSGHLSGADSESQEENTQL
# measurement description: PLC-beta3 inhibitor confirmation, biochemical, fluorescence, purified enzyme (AID 743261)
# experimental parameters: purified PLC-beta3, fluorogenic substrate fluorescence; at 12.3 µM; stronger effect = higher value
The whole screen tested about 3,300 compounds, of which about 35 (1%) were called active. Only a sample is shown.
Give bare numbers, in %.

As a guide, the following entries are already answered.
{"compound": "CC(=O)C1=C(O)C(=O)N(c2cccnc2)C1c1ccc([N+](=O)[O-])cc1 (stereo not given)", "unit text": "%", "inhibition": -1.47}
{"compound": "O=C(O)c1ccc(Cn2c(=S)[nH]c3cc(Cl)ccc3c2=O)cc1", "unit text": "%", "inhibition": -7.23}
{"compound": "O=C1N[C@@H](c2ccccc2)COC(=O)[C@H](Cc2ccc(F)cc2)C/C=C\\C[C@@H]1CC(=O)N(CCO)Cc1ccccc1", "unit text": "%", "inhibition": 0.87}
{"compound": "COc1ccccc1C(=O)N1C(CC(=O)Nc2ccccc2C)C(=O)NC2CCCCC21 (stereo not given)", "unit text": "%", "inhibition": -8.41}
{"compound": "COc1ccc(-c2ccc(CN3C(CC(C)C)C(=O)N(Cc4cn(CC5CCCCC5)nn4)CCS3(=O)=O)cc2)cc1 (stereo not given)", "unit text": "%", "inhibition": -1.28}
{"compound": "COc1ccc(CCNC(=O)COC(=O)Cc2ccccc2F)cc1", "unit text": "%", "inhibition": -2.27}

I have 2 compounds here; please give me inhibition for each one.
1. Cc1ccccc1C(=O)Nc1ccccc1Sc1ccccc1
2. CC(C)Cn1cnc2c1c(=O)n(CC(O)c1ccccc1)c(=O)n2CC(C)C (stereo not given)

-4.34
-3.57

I have 2 compounds here; please give me inhibition for each one.
1. CCOc1cccc(-c2nnc3sc(COc4ccc(OC)cc4)nn23)c1
2. CN(C)/C=C(/C(=O)c1ccc(Cl)cc1)S(=O)(=O)c1ccccc1

1. -3.2
2. -1.45

###

# measured target: 1-phosphatidylinositol 4,5-bisphosphate phosphodiesterase beta-3 (Homo sapiens) (UniProt Q01970)
# measurement description: PLC-beta3 inhibitor confirmation, biochemical, fluorescence, purified enzyme (AID 743261)
# experimental parameters: purified PLC-beta3, fluorogenic substrate fluorescence; at 12.3 µM; stronger effect = higher value
About 35 (1%) of roughly 3,300 compounds were called active. A selection follows.
experimental readout: inhibition (%)
Numbers only, in %.

{"compound": "CCCCNc1ccc(C(=O)Nc2cccc(C)n2)cc1[N+](=O)[O-]", "unit text": "%", "inhibition": -2.68}
{"compound": "CCC[C@H]1CCCC/C=C\\CCCC(=O)OCCN1C(=O)OC(C)(C)C", "unit text": "%", "inhibition": 7.62}
{"compound": "Cc1ccc(C(=O)Nc2ccc(C)c(S(=O)(=O)N(C)C)c2)s1", "unit text": "%", "inhibition": -7.5}
{"compound": "CCOc1ccccc1C1CC(c2cccc(NS(C)(=O)=O)c2)=NN1C(=O)c1ccccc1 (stereo unspecified)", "unit text": "%", "inhibition": -3.53}
{"compound": "CCn1c(/C=C/Nc2ccccc2)[n+](CC)c2ccc(C(=O)OCC(F)(F)F)cc21", "unit text": "%", "inhibition": -12.7}
{"compound": "N#C[C@]1(S(=O)(=O)c2ccccc2)C[C@@H]2ON=C(c3cccc(Br)c3)[C@@H]2C1", "unit text": "%", "inhibition": 0.44}
{"compound": "CCC1CCCCN1C(=O)CSc1nc(C)cc(C)n1 (stereo unspecified)", "unit text": "%", "inhibition": -1.69}
{"compound": "COc1ccccc1CCNC(=O)CN1C(=O)NC2(CCCC2)C1=O", "unit text": "%", "inhibition": 7.54}
{"compound": "CCOc1ccccc1NC(=O)CCN1CCN(S(=O)(=O)c2ccc(OC)cc2)CC1", "unit text": "%", "inhibition": -0.62}
{"compound": "Cc1nc2ccc(NC(=O)c3cccc(S(=O)(=O)N4CCOCC4)c3)cc2s1", "unit text": "%", "inhibition": -9.8}

I have 2 compounds here; please give me inhibition for each one.
1. Cc1ccc(-n2ncc3c2CC(C)(C)CC3NC(=O)CCc2cnn(C)c2)cc1 (stereo unspecified)
2. COc1ccc([N+](=O)[O-])cc1N(CC(O)Cn1nnc2ccccc21)S(=O)(=O)c1ccc(C)cc1 (stereo unspecified)

1. 0.66
2. 3.85

###

# measured target: 1-phosphatidylinositol 4,5-bisphosphate phosphodiesterase beta-3 (Homo sapiens) (UniProt Q01970)
# measurement description: PLC-beta3 inhibitor confirmation, biochemical, fluorescence, purified enzyme (AID 743261)
# experimental parameters: purified PLC-beta3, fluorogenic substrate fluorescence; at 12.3 µM; stronger effect = higher value
Hit rate of the full screen: of about 3,300 compounds, about 35 (1%) were called active. Not all results are given here.
Provide the recorded inhibition for the entries that follow.
Numbers only, in %.

As a guide, the following entries are already answered.
{"compound": "Cc1cc(NC(=O)COn2nnc3ccccc32)no1", "unit text": "%", "inhibition": -9.92}
{"compound": "Cc1cccc(NC(=O)c2ccc3c(=O)n(CC4CCCO4)c(=S)[nH]c3c2)c1 (configuration not stated)", "unit text": "%", "inhibition": 1.92}
{"compound": "Cc1cc(NC(=O)c2ccc(F)cc2)ccc1NC(=O)c1ccco1", "unit text": "%", "inhibition": 8.74}
{"compound": "O=S(=O)(Nc1ccc(Oc2ncccn2)c(Cl)c1)c1ccc(F)cc1", "unit text": "%", "inhibition": -3.4}
{"compound": "CC(C)CCSc1ncnc2c1oc1nc3c(cc12)COC(C)(C)C3", "unit text": "%", "inhibition": -2.11}

I have 6 compounds here; please give me inhibition for each one.
1. COc1cc(OC)nc(S(C)(=O)=O)n1
2. O=C(CSc1ccccc1)Nc1cccc(S(=O)(=O)N2CCOCC2)c1
3. O=C(NC12CC3CC(CC(C3)C1)C2)N1CCCC(CO)C1 (configuration not stated)
4. O=C1c2ccccc2S(=O)(=O)N1CC(O)Cn1c2ccccc2c2ccccc21 (configuration not stated)
5. CN(CC(=O)NC1CCCCC1)S(=O)(=O)c1ccc(Br)s1
6. CCOc1ccc(OCC)c(NC(=O)CSc2nnc(Cn3cnc4ccccc43)n2C)c1

-3.28
4.18
-3.42
-0.97
3.57
2.61

I have 6 compounds here; please give me inhibition for each one.
1. Cc1ccc(C)c(N2CCN(S(=O)(=O)c3c(C)[nH]c(C)c3C(=O)N3CCCC3)CC2)c1
2. COCCCN(C(=S)Nc1c(C)cc(C)cc1C)C(C)c1ccncc1 (configuration not stated)
3. CCCCc1nc2ccccc2c(NC(=O)CN2CCN(C)CC2)c1CCC
4. CCOc1ccc(NC(=O)[C@H](C)NC(=O)C2CC(=O)N(c3ccc(OC)cc3)C2)cc1 (some centres not stated)
5. C[C@]12c3[nH]c4ccc(Cl)cc4c3CCN1C(=O)[C@@H](CC(=O)NCCCn1ccnc1)C[C@@H]2C(=O)N1CCOCC1
6. NC1=CC(=O)C(=O)c2cccnc21

1. -5.1
2. 3.06
3. -2.31
4. -3.05
5. -2.45
6. -2.06

###

# measured target: 1-phosphatidylinositol 4,5-bisphosphate phosphodiesterase beta-3 (Homo sapiens) (UniProt Q01970)
# measurement description: PLC-beta3 inhibitor confirmation, biochemical, fluorescence, purified enzyme (AID 743261)
# experimental parameters: purified PLC-beta3, fluorogenic substrate fluorescence; at 12.3 µM; stronger effect = higher value
In all, about 3,300 compounds went through this assay and about 35 (1%) were called active. Not all results are given here.
Provide the recorded inhibition for the entries that follow.
Answers are plain numbers, in %.

As a guide, the following entries are already answered.
{"smiles string": "COc1ccc(S(=O)(=O)N2CCC(C(=O)OCC(=O)c3ccccc3)CC2)cc1[N+](=O)[O-]", "experimental readout": "inhibition", "unit text": "%", "observed": 0.58}
{"smiles string": "C=CCOc1ccc(Cl)cc1CNCCCN1CCOCC1", "experimental readout": "inhibition", "unit text": "%", "observed": 1.5}
{"smiles string": "CN(C)S(=O)(=O)c1cccc(NC(=O)COC(=O)C2(c3ccccc3F)CCCC2)c1", "experimental readout": "inhibition", "unit text": "%", "observed": 0.6}
{"smiles string": "CCOC(=O)Nc1ccc(NC(=O)OCC)cc1", "experimental readout": "inhibition", "unit text": "%", "observed": 4.88}
{"smiles string": "COc1ccccc1C(=O)Nc1cccc(C(=O)N2CCOCC2)c1", "experimental readout": "inhibition", "unit text": "%", "observed": -1.43}

I have 4 molecules here; please give me inhibition for each one.
1. O=C(NCc1ccc(F)cc1F)[C@@H]1CCCN1C(=O)[C@@H]1CCCN1C(=O)c1cccc(Cl)c1
2. CC1(C)CC(=O)C=C(NC2CC(C)(C)NC(C)(C)C2)C1
3. CCc1c(C)n([O-])c2c([n+]1=O)CCCCC2
4. O=C1/C(=C\c2ccsc2)NC(=S)N1c1ccccc1

1: -0.65; 2: 0.58; 3: -2.11; 4: -5.74

The reported numbers originate from PubChem BioAssay AID743261.
